Assignment: determine reported EC50 for the given molecules.
target under test: GPR120L receptor (Homo sapiens (Human), UniProt Q5NUL3)
Sequence (Q5NUL3 other isoform, or with tags, fused parts or gaps): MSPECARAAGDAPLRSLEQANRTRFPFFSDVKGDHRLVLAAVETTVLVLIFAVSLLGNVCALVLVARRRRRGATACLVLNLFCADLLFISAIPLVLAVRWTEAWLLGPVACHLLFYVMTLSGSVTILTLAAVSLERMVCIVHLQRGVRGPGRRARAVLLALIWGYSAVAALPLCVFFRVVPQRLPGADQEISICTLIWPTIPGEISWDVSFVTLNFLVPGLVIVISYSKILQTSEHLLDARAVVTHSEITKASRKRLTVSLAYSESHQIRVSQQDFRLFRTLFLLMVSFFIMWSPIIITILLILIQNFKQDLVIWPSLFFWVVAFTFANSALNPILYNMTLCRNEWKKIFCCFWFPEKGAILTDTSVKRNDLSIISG
protocol summary: Beta (β) arrestin 2 Interaction Assay (BRET assay), β-galactosidase enzyme fragment complementation
protocol conditions: CHO-K1 cells stably expressing the GPR120L receptor; β-arrestin recruitment; 2 hours incubation

Input line: For O=C(O)CCCc1ccc(OCc2cc(F)ccc2-c2cc3c(s2)CCCC3)cc1 [Example 23] , write its EC50.
Output line: 10 to 500 nM

Input line: For O=C(O)CCCc1ccc(OCc2cc(F)ccc2-c2ncc(C3CC3)s2)cc1 [Example 45] , write its EC50.
Output line: 10 to 500 nM

Input line: For O=C(O)CCc1ccc(OCc2cc(F)ccc2-c2ccc3c(c2)CC3)cn1 [Example 20] , write its EC50.
Output line: 500 to 5000 nM

Input line: For COC1(C)CCCc2cc(-c3ccc(F)cc3COc3ccc(CCCC(=O)O)cc3)ccc21 (stereo not drawn) [Example 39] , write its EC50.
Output line: 5000 to 50000 nM

Input line: For O=C(O)CCCc1ccc(OCc2cc(F)ccc2-c2ccc3c(c2)CC3)cc1 [Example 10] , write its EC50.
Output line: 10 to 500 nM

Input line: For O=C(O)CCCc1ccc(OCc2cc(F)ccc2-c2ccc(C3CC3)cc2)cc1 [Example 7] , write its EC50.
Output line: 10 to 500 nM

Input line: For COC1CCCc2cc(-c3ccc(F)cc3COc3ccc(CCCC(=O)O)cc3)ccc21 (stereo not drawn) [Example 38] , write its EC50.
Output line: 5000 to 50000 nM

Input line: For O=C(O)CCc1ccc(OCc2cc(F)ccc2-c2ccc(C3COC3)cc2)cc1 [Example 13] , write its EC50.
Output line: 5000 to 50000 nM

Input line: For N#CC1(c2ccc(-c3ccncc3COc3ccc(CCCC(=O)O)cc3)cc2)CC1 [Example 19] , write its EC50.
Output line: 500 to 5000 nM

Input line: For N#CC1(c2ccc(-c3ccc(F)cc3COc3ccc(CCC(=O)O)nc3)cc2)CC1 [Example 18] , write its EC50.
Output line: 10 to 500 nM

Input line: For O=C(O)CCCc1ccc(OCc2cc(F)ccc2-c2ccc(C3CC3)s2)cc1 [Example 11] , write its EC50.
Output line: 10 to 500 nM

Input line: For CC1=CCCc2cc(-c3ccc(F)cc3COc3ccc(CCCC(=O)O)cc3)ccc21 [Example 37] , write its EC50.
Output line: 500 to 5000 nM

Input line: For O=C(O)CCc1ccc(OCc2cc(F)ccc2-c2ccc(C3(O)CCC3)cc2)cc1 [Example 14] , write its EC50.
Output line: 500 to 5000 nM

Input line: For O=C(O)CCc1ccc(OCc2cc(F)ccc2-c2ccc(C3COC3)nc2)cc1 [Example 17] , write its EC50.
Output line: 5000 to 50000 nM

Input line: For O=C(O)CCCc1ccc(OCc2cc(F)ccc2-c2nnc(C3CC3)s2)cc1 [Example 44] , write its EC50.
Output line: 10 to 500 nM

Input line: For C=C1CCCc2nc(-c3ccc(F)cc3COc3ccc(CCCC(=O)O)cc3)sc21 [Example 25] , write its EC50.
Output line: 500 to 5000 nM

Input line: For N#CC1(c2ccc(-c3ccc(F)cc3COc3ccc(CCCC(=O)O)cc3)cc2)CC1 [Example 4] , write its EC50.
Output line: 10 to 500 nM

Input line: For CC1(c2ccc(-c3ccc(F)cc3COc3ccc(CCCC(=O)O)cc3)s2)CC1 [Example 40] , write its EC50.
Output line: 10 to 500 nM

From: patent US10227360B2
